biological target: T1, TSHR coated onto tubes (human, UniProt P16473 21-764, limits assumed); test: TSHR coated tubes, competitor 125I-TSH
T1 construct: whole entry named; also called TSHR coated tubes; thyrotropin receptor
binders and their reported % inhib of 125I-TSH binding at 0.1 µg/mL
Response body: numeric value in %, unit text excluded.

Look over these answered cases.
INSERT INTO results (binder, unit_abbreviation, observed) VALUES
  ('16E5 IgG (antibody, V domains shown) VH: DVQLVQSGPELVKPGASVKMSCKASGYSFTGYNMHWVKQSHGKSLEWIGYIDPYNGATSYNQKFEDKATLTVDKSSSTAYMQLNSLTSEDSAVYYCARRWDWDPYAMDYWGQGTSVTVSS VL: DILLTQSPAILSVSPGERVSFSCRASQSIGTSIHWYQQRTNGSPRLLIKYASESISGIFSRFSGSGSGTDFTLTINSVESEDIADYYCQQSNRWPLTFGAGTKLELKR', '%', 26),
  ('14D3 IgG (antibody, V domains shown) VH: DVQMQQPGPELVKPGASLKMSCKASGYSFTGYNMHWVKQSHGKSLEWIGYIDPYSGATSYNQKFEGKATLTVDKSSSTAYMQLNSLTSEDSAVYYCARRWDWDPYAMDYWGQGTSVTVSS VL: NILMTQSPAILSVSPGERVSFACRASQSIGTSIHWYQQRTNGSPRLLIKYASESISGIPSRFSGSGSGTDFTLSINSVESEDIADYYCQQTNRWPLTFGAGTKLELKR', '%', 12.5),
  ('2B4 IgG (antibody, V domains shown) VH: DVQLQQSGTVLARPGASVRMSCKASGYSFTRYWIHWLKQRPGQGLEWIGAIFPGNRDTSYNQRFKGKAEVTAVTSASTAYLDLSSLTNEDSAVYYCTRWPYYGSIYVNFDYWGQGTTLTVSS VL: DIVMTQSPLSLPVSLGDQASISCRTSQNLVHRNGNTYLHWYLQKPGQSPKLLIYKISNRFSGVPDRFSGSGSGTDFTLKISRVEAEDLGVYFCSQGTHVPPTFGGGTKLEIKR', '%', 56);

Kindly consider the entry below.
Please look at this binder and report its % inhib of 125I-TSH binding at 0.1 µg/mL: 9D33 IgG (antibody, V domains shown) VH: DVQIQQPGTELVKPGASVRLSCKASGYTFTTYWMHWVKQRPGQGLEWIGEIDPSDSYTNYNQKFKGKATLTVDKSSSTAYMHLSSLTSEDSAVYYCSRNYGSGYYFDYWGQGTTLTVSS VL: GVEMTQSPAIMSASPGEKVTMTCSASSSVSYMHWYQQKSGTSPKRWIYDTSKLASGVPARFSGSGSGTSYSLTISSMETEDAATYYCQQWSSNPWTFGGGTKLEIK
31
